# EC50 per entry
# Test system: KLF15 promoter (pEZX-FR03hKLF15p human podocytes)
# Assay Details: Half maximal effective concentration (EC50) of KLF15 reporter activity
# Format: cell-based
# Assay Setup: KLF15 reporter activity, dose-response; read-out: EC50
Expressed in nM, but write only the number.

Recorded results for 3 compounds are shown here.
| Compound | EC50 (nM) |
| --- | --- |
| Oc1ccc(-c2nc3ccccc3s2)cc1 [C-1, Phenol,4-(2-benzothiazolyl)] | 99.6 |
| COc1ccc2c(n1)Sc1nc3ccccc3nc1N2 [C-35, 7-Methoxy-1,4,6-benzotriazaphenothiazine] | 319 |
| Cc1cccn2c(=O)[nH]nc12 [C-29] | 550 |

## Task Bench note: what EC50 did CN(C)c1ccc(/C=C2\C=Cc3ccccc32)cc1 [C-3, [(4-Dimethylamino)benzylidene]indene] show?
## Result 17.7

## Task Bench note: what EC50 did O=C(Nc1cccc([N+](=O)[O-])c1)c1ccc2ccccc2c1O [C-38, 2-<3-Nitro-phenylcarbamoyl>-naphth-1-ol] show?
## Result 145

## Task Bench note: what EC50 did CN(C)c1ccc(N=Nc2ccccn2)cc1 [C-37, 4-(2-pyridylazo)-n,n-dimethylaniline] show?
## Result 27

Where do these numbers come from? They come from patent US20250186411A1.
